biological target: Cytochrome P450 3A4 (Homo sapiens) (UniProt P08684); assay: qHTS Assay for Inhibitors and Substrates of Cytochrome P450 3A4 (AID 884); details: recombinant CYP3A4, Luciferin-PPXE luminescence; series mostly up to 57.1 µM; note: nearly all actives have a fitted effect of over 50% in size
Sequence (P08684 whole entry, looked up): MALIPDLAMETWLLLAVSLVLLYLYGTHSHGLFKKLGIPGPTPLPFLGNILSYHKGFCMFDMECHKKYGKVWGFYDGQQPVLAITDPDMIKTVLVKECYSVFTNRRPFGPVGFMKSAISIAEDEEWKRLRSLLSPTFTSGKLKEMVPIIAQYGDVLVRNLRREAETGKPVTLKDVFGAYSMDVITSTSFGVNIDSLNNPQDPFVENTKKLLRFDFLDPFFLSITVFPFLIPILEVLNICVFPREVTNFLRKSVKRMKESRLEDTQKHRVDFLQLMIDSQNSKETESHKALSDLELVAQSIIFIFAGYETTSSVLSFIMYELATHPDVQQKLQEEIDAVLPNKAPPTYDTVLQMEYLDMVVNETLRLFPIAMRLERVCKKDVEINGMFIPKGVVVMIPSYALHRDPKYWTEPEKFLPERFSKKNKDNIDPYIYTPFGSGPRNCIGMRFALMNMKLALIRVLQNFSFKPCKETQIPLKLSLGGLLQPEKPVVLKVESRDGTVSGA
Results filed as inconclusive are left out. Active and inactive are the calls of the source. Calls come from the whole dose curve; as a rule, active = well fitted inhibition curve with a large enough effect; inconclusive = small, poorly fitted or top-dose-only effect; inactive = no such curve, though single readings can be large or run the other way.
Give your call using only these classes: true = active, false = inactive

A selection of reference data follows.
>>> cat("NC(CCC(=O)N[C@@H](CS)C(=O)NCC(=O)O)C(=O)O (some centres not stated)")
"false"
>>> cat("COc1ccc2c(c1)OC1(O)COc3cc(OC)c(OC)cc3C1=C2 (configuration not stated)")
"true"
>>> cat("OCC1O[C@@H](OC2C(O)C(CO)O[C@@]2(CO)O[C@@H]2OC(CO)C(O)C(O)C2O)C(O)C(O)C1O (some centres not stated)")
"false"
>>> cat("COc1cccc2c1CCC1=CC(=O)CC[C@@]12C")
"false"
>>> cat("CCC(CCC(C)C1CCC2C3CC=C4CC(OC(C)=O)CC[C@@]4(C)C3CC[C@@]12C)C(C)C (some centres not stated)")
"false"
>>> cat("N[C@@H]1C(O)OC(CO)C(O)C1O (some centres not stated)")
"false"

Shifting focus to the compound that follows.
Called result for CCCC(NC(C)C(=O)N1C(C(=O)O)CC2CCCCC21)C(=O)OCC (configuration not stated)
false

----------
Tested on: CP192
Test: qHTS profiling for inhibitors of Plasmodium falciparum proliferation (AID 504749); note: nearly all actives have a fitted effect of over 60% in size
Settings: P. falciparum in erythrocytes, SYBR Green DNA, 72 h; series mostly up to 12.8 µM
Procedure: NIH National Institute of Allergy and Infectious Diseases [NIAID] NIH Chemical Genomics Center [NCGC] […] Because mature erythrocytes lack DNA, only Plasmodium-derived DNA is detected. NCGC Assay Protocol Summary: The SYBR Green viability assay was adapted from a method described previously (Plouffe et al., 2008). […] The following morning, fluorescence intensity at 485(14) nm excitation and 535(25) nm emission wavelengths was measured on an EnVision (Perkin Elmer) plate reader. […]
Inconclusive results are not listed. Activity calls are given as the source filed them. The call rests on the fitted dose curve; in most records, active means well fitted inhibition curve with a large enough effect; inconclusive means small, poorly fitted or top-dose-only effect; inactive means flat fitted curve, though single readings scatter.
Give your call using only these classes: t = active, f = inactive

A selection of reference data follows.
>>> cat("C[C@H](O)Cn1cnc2c1c(=O)n(C)c(=O)n2C")
"f"
>>> cat("CC(=O)N[C@@H]1C(O)OC(CO)C(O)C1O (some centres undefined)")
"f"
>>> cat("CC=C(/C(=C/C)c1ccc(O)cc1)c1ccc(O)cc1")
"f"
>>> cat("COc1cc(N[C@@H](C)CCCN)c2ncccc2c1")
"t"
>>> cat("Cc1ccc2c(c1)c1c3n2CCN[C@H]3CCC1")
"f"
>>> cat("O=C1OC(CO)C(O)C(O)C1O (centres undefined)")
"f"
>>> cat("NC(=O)N[C@H]1NC(=O)NC1=O")
"f"
>>> cat("Cn1nnnc1SCC1=C(C(=O)O)N2C(=O)[C@@H](NC(=O)[C@@H](O)c3ccccc3)[C@@H]2SC1")
"f"
>>> cat("CCCC[C@H](CC)CN1CN(C[C@@H](CC)CCCC)CC(C)(N)C1")
"f"
>>> cat("NC(C(=O)O)[C@@H]1CC(Cl)=NO1 (some centres undefined)")
"t"

Called result for O=C(Nc1ccccc1)OC[C@H](CN1CCCCC1)OC(=O)Nc1ccccc1
f

Called result for C=CC1=C(C(=O)O)N2C(=O)[C@@H](NC(=O)/C(=N\OCC(=O)O)c3csc(N)n3)[C@@H]2SC1
f

Called result for COc1ccc(-c2cc(=O)c3c(O)cc(O[C@H]4OC(COC5OC(C)C(O)C(O)[C@H]5O)C(O)C(O)C4O)cc3o2)cc1O (some centres undefined)
f

Called result for C[C@]12C=CC(=O)C=C1CCC1C2C(O)C[C@]2(C)C1CC[C@]2(O)C(=O)CO (some centres undefined)
f

Called result for CC1=C(C(=O)O)N2C(=O)[C@@H](NC(=O)[C@@H](N)c3ccc(O)cc3)[C@@H]2SC1
f

Called result for C=Cc1c(C)c2cc3nc(cc4[nH]c(cc5nc(cc1[nH]2)C(C)=C5CCC(=O)O)c(CCC(=O)OC)c4C)[C@@]1(C)C3=CC=C(C(=O)OC)[C@H]1C(=O)OC (tested in a mixture with another compound)
f

Called result for Nc1nc(NC2CC2)c2ncn([C@H]3C=C[C@@H](CO)C3)c2n1
f

Called result for CC(=O)OCC(=O)[C@@]1(O)[C@H](C)C[C@@H]2[C@H]3CCC4=CC(=O)C=C[C@]4(C)[C@]3(F)[C@@H](O)C[C@@]21C
f

Called result for CC(=O)O[C@H]1C[C@@]2(C)[C@H](C[C@@H](O)[C@H]3[C@@]4(C)CC[C@@H](O)[C@@H](C)[C@H]4CC[C@@]32C)C1=C(CCC=C(C)C)C(=O)O
f

Called result for C[C@@]12CC[C@H]3[C@@H](CCC4=CC(=O)CC[C@]43C)[C@H]1CC[C@H]2C(=O)CO
f

Called result for NC(=O)c1cc[n+](CC2=C(C(=O)[O-])N3C(=O)[C@@H](NC(=O)Cc4cccs4)[C@@H]3SC2)cc1
f
